# System: MCF-7
# ASSAY_SUMMARY: Cell survival, mutants of MDOKSH peptide
# Format: cell-based
# Parameters: unit not given here
# REPORTED_CONDITIONS: expressed relative to the activity of the parental peptide MDOKSH
Known CELL SURVIVAL, MCF-7 of a selection of sequences

Request: Record lookup: for MCF-7, what CELL SURVIVAL, MCF-7 belongs to KKGFYKKKQCRPSKGRKRGFCWKPLYWDLYEP [Mutant 11] ?
Result: 59.6 ± 10.7

Request: Tell me reported CELL SURVIVAL, MCF-7 for KKGFYKKKQCRPSKGRKRGFCWKPLYWALYE [Mutant 23] , tested with MCF-7.
Result: 58.8 ± 8.1

Request: Checklist item: CELL SURVIVAL, MCF-7 tested on MCF-7, entry AKGFYKKKQCRPSKGRKRGFCWKPLYWDLYE [Mutant 48] , value?
Result: 61.6 ± 3.1

Request: Give MCF-7 CELL SURVIVAL, MCF-7 for KKGFYKKKQCRPSKGRKRGFCWKPLYWDLYEI [Mutant 6]
Result: 68.5 ± 6.5

Request: Fill in the recorded CELL SURVIVAL, MCF-7 for this sequence, with MCF-7 as test system: KKGFYKKKQCRPSKGRKRGFCWKPLYWDLYEM [Mutant 9]
Result: 56.8 ± 8.1

Request: Give CELL SURVIVAL, MCF-7 (MCF-7) of the following sequence: KKGFYKKKQCRPSKGRKRGFCWAPLYWDLYE [Mutant 28]
Result: 52.7 ± 11.7
